System Tested: Acetylcholinesterase (Electrophorus electricus) (UniProt O42275)
Sequence (O42275 24-633 limits assumed): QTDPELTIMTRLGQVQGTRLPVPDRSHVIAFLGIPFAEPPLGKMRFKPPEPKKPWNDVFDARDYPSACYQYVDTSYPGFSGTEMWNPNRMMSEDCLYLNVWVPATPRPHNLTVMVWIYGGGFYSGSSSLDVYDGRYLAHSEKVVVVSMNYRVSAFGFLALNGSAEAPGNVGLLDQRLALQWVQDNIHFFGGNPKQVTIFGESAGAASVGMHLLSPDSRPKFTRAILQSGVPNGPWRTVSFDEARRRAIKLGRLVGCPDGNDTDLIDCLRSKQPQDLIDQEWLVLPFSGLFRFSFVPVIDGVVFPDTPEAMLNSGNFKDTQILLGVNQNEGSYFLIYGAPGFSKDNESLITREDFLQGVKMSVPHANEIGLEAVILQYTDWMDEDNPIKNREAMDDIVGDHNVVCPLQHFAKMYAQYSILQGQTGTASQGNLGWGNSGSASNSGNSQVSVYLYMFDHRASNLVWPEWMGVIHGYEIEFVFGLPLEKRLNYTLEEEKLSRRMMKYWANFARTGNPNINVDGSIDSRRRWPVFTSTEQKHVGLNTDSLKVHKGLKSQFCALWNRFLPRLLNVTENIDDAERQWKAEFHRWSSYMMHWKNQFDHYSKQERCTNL
Protocol Summary: Inhibition of electric eel AChE at 20 uM using acetylthiocholine iodide as substrate preincubated with enzyme for 20 mins followed by substrate addition and measured after 45 mins by Ellman's method
Measurement Context: time 65.0 min
// reported inhibition per item
Test Readout: inhibition (%)

{"Mol": "CC1(C)Oc2ccc(/C(Cn3ccnc3)=N/OC(=O)/C=C/c3ccc(Cl)cc3)cc2O1", "Test Readout": "inhibition", "Recorded Measurement": 71}
{"Mol": "CC1(C)Oc2ccc(/C(Cn3ccnc3)=N/OC(=O)c3ccc4ccccc4c3)cc2O1", "Test Readout": "inhibition", "Recorded Measurement": 67}
{"Mol": "CC1(C)Oc2ccc(/C(Cn3ccnc3)=N/OC(=O)c3ccc4ccccc4c3Br)cc2O1", "Test Readout": "inhibition", "Recorded Measurement": 72}
{"Mol": "CC1(C)Oc2ccc(/C(Cn3ccnc3)=N/OC(=O)c3ccc4cc(Br)ccc4c3)cc2O1", "Test Readout": "inhibition", "Recorded Measurement": 69}

---

Protocol Summary: Cytotoxicity against LPS induced mouse BV-2 cells assessed as inhibition in cell viability at 20 uM measured by MTT assay
Measurement Context: BV-2 cells
// reported viability at 20 µM per item

{"Molecule": "CC1(C)Oc2ccc(/C(Cn3ccnc3)=N/OC(=O)c3cccc4ccccc34)cc2O1", "viability at 20 µM / %": 91.1}
{"Molecule": "C=CCO/N=C(\\Cn1ccnc1)c1ccc2c(c1)OCO2", "viability at 20 µM / %": 97.8}
{"Molecule": "C=C(C)CO/N=C(\\Cn1ccnc1)c1ccc2c(c1)OCO2", "viability at 20 µM / %": 96.5}
{"Molecule": "C#CC(C)O/N=C(\\Cn1ccnc1)c1ccc2c(c1)OCO2 (centres undefined)", "viability at 20 µM / %": 96.1}

---

Protocol Summary: Cytotoxicity against rat PC12 cells assessed as cell viability at 1 to 10 uM measured after 24 hrs by MTT assay relative to control
Type: toxicity, cell-based, PC-12
Measurement Context: dose 1-10 µM, read-out: Activity
Test Readout: viability at 24 h, up to 10 µM

{"Mol": "CC1(C)Oc2ccc(/C(Cn3ccnc3)=N/OC(=O)Cc3cccc4ccccc34)cc2O1", "Recorded Measurement": "> 95%"}
{"Mol": "CC1(C)Oc2ccc(/C(Cn3ccnc3)=N/OC(=O)c3ccc4ccccc4c3)cc2O1", "Recorded Measurement": "> 95%"}

---

Protocol Summary: Cytotoxicity against LPS induced mouse BV-2 cells assessed as inhibition in cell viability at 20 uM measured by MTT assay
Measurement Context: bv-2
Test Readout: viability at 20 µM (%)

{"Compound": "Clc1ccc(CO/N=C(\\Cn2ccnc2)c2ccc(Cl)cc2Cl)c(Cl)c1 [OXICONAZOLE]", "Unit Descriptor": "%", "Recorded Measurement": 96.2}

---

Protocol Summary: Cytotoxicity against LPS induced mouse BV-2 cells assessed as inhibition in cell viability at 20 uM measured by MTT assay
Measurement Context: BV-2 cells
// reported viability at 20 µM per item

{"Mol": "Cc1ccc(C(=O)O/N=C(\\Cn2ccnc2)c2ccc3c(c2)OC(C)(C)O3)c2ccccc12", "viability at 20 µM": "94.3%"}
{"Mol": "C#CCO/N=C(\\Cn1ccnc1)c1ccc(F)cc1", "viability at 20 µM": "93.8%"}
{"Mol": "C#CCO/N=C(\\Cn1ccnc1)c1ccc(OC)cc1", "viability at 20 µM": "95.9%"}
{"Mol": "C=CCO/N=C(\\Cn1ccnc1)c1ccc2c(c1)OC(C)(C)O2", "viability at 20 µM": "96.4%"}
{"Mol": "CC1(C)Oc2ccc(/C(Cn3ccnc3)=N/OC(=O)/C=C/c3ccc(F)cc3)cc2O1", "viability at 20 µM": "95.7%"}
{"Mol": "C(=C\\c1ccccc1)/CO/N=C(\\Cn1ccnc1)c1ccc2c(c1)OCO2", "viability at 20 µM": "96.3%"}
{"Mol": "CC1(C)Oc2ccc(/C(Cn3ccnc3)=N/OC(=O)Cc3cccc4ccccc34)cc2O1", "viability at 20 µM": "94.8%"}
{"Mol": "CC(C)=CCO/N=C(\\Cn1ccnc1)c1ccc2c(c1)OCO2", "viability at 20 µM": "93.3%"}
{"Mol": "CC1(C)Oc2ccc(/C(Cn3ccnc3)=N/OC(=O)/C=C/c3cccc(Cl)c3)cc2O1", "viability at 20 µM": "92.7%"}
{"Mol": "Cc1ccc(C(=O)O/N=C(\\Cn2ccnc2)c2ccc3c(c2)OC(C)(C)O3)cc1", "viability at 20 µM": "98.2%"}
